target: PKR R532W (Homo sapiens, UniProt P30613, R532W); test: PKR Mutant Assay, AC50 against PKR R532W; format: biochemical; details: mutant PKR R532W enzyme
Sequence (P30613 whole entry R532W): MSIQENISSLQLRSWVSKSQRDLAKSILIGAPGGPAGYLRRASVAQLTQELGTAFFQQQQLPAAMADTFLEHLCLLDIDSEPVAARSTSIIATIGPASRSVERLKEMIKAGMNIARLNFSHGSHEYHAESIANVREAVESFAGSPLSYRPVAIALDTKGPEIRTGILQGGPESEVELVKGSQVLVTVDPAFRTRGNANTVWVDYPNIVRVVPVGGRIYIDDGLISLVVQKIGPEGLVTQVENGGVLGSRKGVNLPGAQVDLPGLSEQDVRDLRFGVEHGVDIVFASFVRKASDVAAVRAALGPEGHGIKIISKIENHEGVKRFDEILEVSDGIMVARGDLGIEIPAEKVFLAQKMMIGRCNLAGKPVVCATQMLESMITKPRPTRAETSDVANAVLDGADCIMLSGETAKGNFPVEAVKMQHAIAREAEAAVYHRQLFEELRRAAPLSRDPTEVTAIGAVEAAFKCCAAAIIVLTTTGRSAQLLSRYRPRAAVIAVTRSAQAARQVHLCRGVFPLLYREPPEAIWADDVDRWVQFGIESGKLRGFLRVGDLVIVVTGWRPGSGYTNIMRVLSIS
experimentalEndpoint: AC50

CC(C)CC1(O)CCN(C(=O)c2ccc(NS(=O)(=O)c3csc4cccnc34)cc2)CC1 [Compound 269]: 101 to 1000 nM
CC(C)CC1(O)CCN(C(=O)c2ccc(NS(=O)(=O)c3ccc(F)c4nccnc34)cc2)CC1 [Compound 242]: 101 to 1000 nM
O=C(c1ccc(NS(=O)(=O)c2cccc3cnccc23)cc1)N1CCC(O)(Cc2ccccc2)CC1 [Compound 283]: 101 to 1000 nM

--- query ---
Ask: Requested field: AC50. Item: CC(CC1(O)CCN(C(=O)c2ccc(NS(=O)(=O)c3cccc4c(O)ncnc34)cc2)CC1)C(F)(F)F (stereo not shown) [Compound 431]
Reply: < 100 nM
